meta.source: ChEMBL document CHEMBL1201862

# Test system: SK-OV-3
# procedure-text: NCI tumour cell line growth inhibition, 48 h
The source made the active and inactive calls. Cut-off read from the data, not from the text of the source: active = GI50 up to about 1.1 µM and inactive = higher.
Readings of GI50 for the listed compounds
quantity-measured: GI50

>  <compound>
Clc1cccc(C2SCc3nc4ccccc4n32)c1 (configuration not stated)

>  <target-desc>
SK-OV-3

>  <quantity-measured>
GI50

>  <value-observed>
21.6 µM (inactive)

$$$$
>  <compound>
CC1OC(OCC2OC(Oc3ccc(C4CC(=O)c5c(O)cc(O)cc5O4)cc3O)C(O)C(O)C2O)C(O)C(O)C1O (configuration not stated)

>  <target-desc>
SK-OV-3

>  <quantity-measured>
GI50

>  <value-observed>
> 100 µM (inactive)

$$$$
>  <compound>
Oc1ccc2c3c1OC1C(=NN=C4CCC5(O)C6Cc7ccc(O)c8c7C5(CCN6CC5CC5)C4O8)CCC4(O)C(C2)N(CC2CC2)CCC314 (configuration not stated)

>  <target-desc>
SK-OV-3

>  <quantity-measured>
GI50

>  <value-observed>
> 51.3 µM (inactive)

$$$$
>  <compound>
COC(=O)Cc1c([C@H]2[C@H](CC(=O)OC)c3ccccc3N2S(=O)(=O)c2ccc(C)cc2)[nH]c2ccccc12

>  <target-desc>
SK-OV-3

>  <quantity-measured>
GI50

>  <value-observed>
> 100 µM (inactive)

$$$$
>  <compound>
[N-]=[N+]=Nc1nnc(CCCCc2nnc(N=[N+]=[N-])o2)o1

>  <target-desc>
SK-OV-3

>  <quantity-measured>
GI50

>  <value-observed>
> 100 µM (inactive)

$$$$
>  <compound>
COc1ccc(C(CC(=O)c2ccccc2)C(=O)c2ccc3c(c2)OCO3)cc1 (configuration not stated)

>  <target-desc>
SK-OV-3

>  <quantity-measured>
GI50

>  <value-observed>
> 100 µM (inactive)

$$$$
>  <compound>
CNC1C(O)C(NC)C2OC3(O)C(=O)CC(C)OC3OC2C1O (configuration not stated)

>  <target-desc>
SK-OV-3

>  <quantity-measured>
GI50

>  <value-observed>
> 100 µM (inactive)

$$$$

###

# System: OVCAR-3
# procedure-text: NCI tumour cell line growth inhibition, 48 h
Active and inactive are the calls of the source. No stated cut-off is given here; in the data, active = GI50 up to about 1.1 µM and inactive = higher.
Classes used: T (active), F (inactive)

>  <compound>
CC(C)(C)OC(=O)n1c(Cl)c(C=O)c2ccccc21

>  <category-label>
F

$$$$
>  <compound>
N#Cc1c(-c2ccc(Cl)cc2)[nH]c(=O)n(C2OC(CO)C(O)C(O)C2O)c1=O (stereo not drawn)

>  <category-label>
F

$$$$
>  <compound>
COc1nc2c(nc(N)n2C2OCC(O)C(O)C2O)c(=O)n1C (stereo not drawn)

>  <category-label>
F

$$$$
>  <compound>
COC(=O)CCSC(=O)Nc1ccc(/N=N/c2ccccc2)cc1

>  <category-label>
F

$$$$
>  <compound>
Cc1ccc(S(=O)(=O)c2ccsc2NC(=O)c2ccccc2)cc1

>  <category-label>
F

$$$$
>  <compound>
N/N=C1\C(=O)N(c2ccc(Cl)cc2Cl)C(=O)C(=O)C1c1nc2ccccc2o1 (stereo not drawn)

>  <category-label>
F

$$$$
>  <compound>
Cc1ccc(S(=O)(=O)c2c(O)c3ccc(O)c(C)c3oc2=O)cc1

>  <category-label>
F

$$$$
>  <compound>
COC1(CCO)CC=CCC1(CCO)OC (stereo not drawn)

>  <category-label>
F

$$$$
>  <compound>
O[C@@]12Cc3c([nH]c4ccccc34)[C@@H]3Oc4cccc5c4[C@@]31CCN(CC1CC1)[C@@H]2C5

>  <category-label>
F

$$$$
>  <compound>
CCN(CC)/[N+]([O-])=N/OC

>  <category-label>
F

$$$$
>  <compound>
O=S(=O)(c1ccc(NC(=S)N/N=C/c2ccccc2O)cc1)N1CCCCC1

>  <category-label>
T

$$$$
>  <compound>
O=C1OC2c3ccccc3C(=O)C2(c2ccccc2)N1c1ccccc1 (stereo not drawn)

>  <category-label>
F

$$$$
>  <compound>
Cc1n[nH]/c(=N\S(=O)(=O)c2ccc(/N=N/c3c(O)c(C(=O)O)cc4ccccc34)cc2)s1

>  <category-label>
F

$$$$
>  <compound>
c1ccc(NN(Cc2cnccn2)c2ccccc2)cc1

>  <category-label>
F

$$$$
>  <compound>
COC(=O)N1N=C(c2ccccc2)C1c1ccccc1 (stereo not drawn)

>  <category-label>
F

$$$$
>  <compound>
CCc1n[nH]c(=O)n1N1C(=O)C2CCCCC2C1=O (stereo not drawn)

>  <category-label>
F

$$$$
>  <compound>
O=c1ccc(-c2ccc(-n3ccnc3)cc2)nn1CCO

>  <category-label>
F

$$$$
>  <compound>
CCCCCCCCCCCNC=O

>  <category-label>
F

$$$$
>  <compound>
C=C(CN(C)C)C(=O)c1ccccc1[N+](=O)[O-]

>  <category-label>
F

$$$$
>  <compound>
CN(N=O)C(=O)Nc1ccc(C(=O)O)cc1

>  <category-label>
F

$$$$
>  <compound>
O=c1/c(=C/c2ccccc2O)sc2nc3ccccc3n12

>  <category-label>
F

$$$$
>  <compound>
COc1ccc([N+](=O)[O-])c2c(NCC(O)CO)ccnc12 (stereo not drawn)

>  <category-label>
F

$$$$
>  <compound>
COc1ccc(OC)c(NC(=O)CCC/C(CC(=O)c2ccc(O)c(OC)c2)=N\Nc2ccc([N+](=O)[O-])cc2)c1

>  <category-label>
F

$$$$
>  <compound>
CC[C@H](CCCC[C@H]1CC[C@@H]2CC(=O)C[C@H]12)OC

>  <category-label>
F

$$$$
>  <compound>
O=C(c1ccc([N+](=O)[O-])cc1)N1CCCC1

>  <category-label>
F

$$$$
>  <compound>
COc1ccc(C(=O)Nc2ccc3oc(-c4ccccc4)nc3c2)cc1

>  <category-label>
F

$$$$
>  <compound>
COc1ccccc1C1SCC(=O)N1c1ccc(-c2ccc(-n3c(-c4ccccc4)nc4ccccc4c3=O)cc2)cc1 (stereo not drawn)

>  <category-label>
F

$$$$
>  <compound>
O[C@@]1(c2cccs2)c2cccc(Cl)c2[C@](O)(c2cccs2)c2cccc(Cl)c21

>  <category-label>
F

$$$$

###

Listed below: GI50 values for each entry.
# Test system: UO-31
# procedure-text: NCI tumour cell line growth inhibition, 48 h
Activity calls are given as the source filed them. Rule as the data show it: active = GI50 up to about 1.1 µM and inactive = higher.

>  <compound>
CCCCCCC(=O)c1ccc2ccccc2c1O

>  <GI50>
47.6 µM (inactive)

$$$$
>  <compound>
O=C1c2c(O)cc(O)cc2C(C2OC(CO)C(O)C(O)C2O)c2cc(CO)cc(O)c21 (stereo unspecified)

>  <GI50>
> 100 µM (inactive)

$$$$
>  <compound>
CCOC(=O)C(C)c1nc2cc(C(F)(F)F)ccc2[nH]c1=O (stereo unspecified)

>  <GI50>
> 100 µM (inactive)

$$$$
>  <compound>
Cc1ccc2ccccc2c1CSc1nc(N)nc2c1ncn2CC(C)C

>  <GI50>
2.79 µM (inactive)

$$$$
>  <compound>
CCOC(=O)CNC(=O)C(CSC(=O)N(O)c1ccc(Cl)cc1)NC(=O)CCC(N)C(=O)OCC (stereo unspecified)

>  <GI50>
> 50 µM (inactive)

$$$$
>  <compound>
CCCCc1ccc(C#CC#Cc2ccc(CCCC)s2)s1

>  <GI50>
> 100 µM (inactive)

$$$$
>  <compound>
COC(=O)C1=NN2c3ccccc3CN([C@@H](C)c3ccccc3)C(=O)[C@@H]2[C@H]1c1ccccc1

>  <GI50>
> 100 µM (inactive)

$$$$
>  <compound>
CN(N=O)C(=O)Nc1ccc(C(=O)O)cc1

>  <GI50>
> 100 µM (inactive)

$$$$
>  <compound>
CC(=O)N(C(=O)CC(=O)N/N=C\c1ccc(Br)c(N(CCC#N)CCC#N)c1)c1ccc(Cl)cc1

>  <GI50>
24.8 µM (inactive)

$$$$
>  <compound>
COC(=O)/C(=N/NC(C)(C)C)C(C(=O)C=C(C)C)C(=O)C(=O)Nc1ccc(Cl)cc1C (stereo unspecified)

>  <GI50>
> 100 µM (inactive)

$$$$
>  <compound>
O=C(c1cc2c(c3ccccc13)NCCN=C2C(F)(F)F)C(F)(F)F

>  <GI50>
51.9 µM (inactive)

$$$$
>  <compound>
CCSC1=C(C#N)C2(CCCCC2)C2=C(O)CC(C)(C)CC2=N1

>  <GI50>
16.6 µM (inactive)

$$$$
>  <compound>
CC1(C)C(=O)C(C)(C)C1=S

>  <GI50>
> 100 µM (inactive)

$$$$
>  <compound>
Nc1ncnc2c1sc(=S)n2-c1ccccc1

>  <GI50>
89.3 µM (inactive)

$$$$
>  <compound>
CSc1c(C#N)c(N)nc2c(/N=N\c3ccc(Br)cc3)c(N)nn12

>  <GI50>
14.8 µM (inactive)

$$$$
>  <compound>
O=c1[nH]c2nc3ccccc3c(=O)n2/c1=C/c1ccc(Cl)cc1

>  <GI50>
67.6 µM (inactive)

$$$$
